Here the recorded selectivity ratio is given for each entry.
# Assay Summary: Selectivity index, ratio of ED50 for human HaCaT cells to MIC for Escherichia coli K-12 W3110 ATCC 27325
# Assay type: toxicity
# Test Parameters: read-out: Selectivity Index
Square brackets hold non-standard residues; d marks the D form. Peptide text beside a SMILES is read from it. Nspe = C[C@H](NCC(=O)O)c1ccccc1; Nlys = NCCCCNCC(=O)O
Quantity Name: selectivity ratio

compound=C[C@@H](c1ccccc1)N(CC(N)=O)C(=O)CN(C(=O)CN(CCN)C(=O)CN(C(=O)CN(C(=O)CNCCN)[C@@H](C)c1ccccc1)[C@@H](C)c1ccccc1)[C@@H](C)c1ccccc1 recorded_result=1
compound=N=C(N)NCCCCNCC(=O)N(CC(=O)N(CC(=O)N(CCCCNC(=N)N)CC(=O)N(CC(=O)N(CC(=O)N(CCCCNC(=N)N)CC(=O)N(CC(=O)N(CC(=O)N(CCCCNC(=N)N)CC(=O)N(CC(=O)N(CC(N)=O)Cc1cccc(F)c1)Cc1cccc(F)c1)Cc1cccc(F)c1)Cc1cccc(F)c1)Cc1cccc(F)c1)Cc1cccc(F)c1)Cc1cccc(F)c1)Cc1cccc(F)c1 recorded_result=2
compound="C[C@@H](c1ccccc1)N(CC(N)=O)C(=O)CN(C(=O)CN(CCCCN)C(=O)CN(C(=O)CN(C(=O)CNCCCCN)[C@@H](C)c1ccccc1)[C@@H](C)c1ccccc1)[C@@H](C)c1ccccc1 (H-[Nlys][Nspe][Nspe][Nlys][Nspe][Nspe]-NH2)" recorded_result=1
compound="CC(c1ccccc1)N(CC(=O)N(CCCCN)CC(=O)N(CC(=O)N(CC(=O)N(CCCCN)CC(=O)N(CC(=O)N(CC(N)=O)[C@@H](C)c1ccccc1)[C@@H](C)c1ccccc1)Cc1ccc(F)cc1)Cc1ccc(F)cc1)C(=O)CN(C(=O)CNCCCCN)[C@@H](C)c1ccccc1 (single isomer, unassigned)" recorded_result=5
